assay: chemical genetic growth profiling, strain panel (AID 1159580);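 further: tested at 20 µM; growth read once vehicle control cultures reached saturation at 30 °C; lower values mean less growth of the strain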; conditions: S. cerevisiae deletion strains, growth OD, locus YER155C, strain BEM2 (second series)
Hit rate of the full screen: of about 5,500 compounds, about 2,000 (36%) were called active. Roughly 18% stayed inconclusive and do not appear here. No stated cut-off is given here; in the data, active means normalized growth mostly below about 0.91 (no sharp cut-off); inconclusive means no clear call, values can overlap the other calls; inactive means mostly above about 0.92. Some of the results follow.
Form entry, call: pick from y = active, n = inactive

# outcome recorded in this test, key = C#C[C@]1(O)CCC2C3CCC4=CC(=O)CC[C@@H]4C3CC[C@@]21CC (stereo not given in full) n

What about this compound? COc1cccc2c1C(=O)c1c(O)c3c(c(O)c1C2=O)C[C@@](O)(C(C)=O)C[C@@H]3O[C@H]1C[C@H](N)[C@H](O)[C@H](C)O1 y

What about this compound? COc1cccc2c1C(=O)c1c(O)c3c(c(O)c1C2=O)C[C@@](O)(C(=O)CO)C[C@@H]3O[C@H]1C[C@H](N)[C@@H](O)[C@H](C)O1 y

What about this compound? NC12CC3CC(CC(C3)C1)C2 n

What about this compound? FC(F)(F)c1ccccc1-n1ccnc1 n

What about this compound? C#C[C@]1(OC(C)=O)CCC2C3CCC4=CC(=O)CC[C@@H]4C3CC[C@@]21C (stereo not given in full) n

What about this compound? COC(=O)Nc1nc2ccc(Sc3ccccc3)cc2[nH]1 n

What about this compound? CC(=O)/C=C\[C@@H]1[C@@]2(C)CCCC(C)(C)C2CC[C@@]1(C)O (stereo not given in full) n

What about this compound? CCOP(=S)(OCC)Oc1nc(Cl)c(Cl)cc1Cl y

What about this compound? Clc1ccccc1C(c1ccccc1)(c1ccccc1)n1ccnc1 y
